# measurement notes: soluble on expression in E. coli; label from the status in PepcDB or PDB records

input sequence: MGSDKIHHHHHHMMNVLRDGCSERGTARVGKHHDLKTVRWYVLTLPTTGVARRDKISPAKSLDAELSRRKRRGETLFEYFAPSYVEVRKVDGKMVNTKRPLLFNYVFIRSSVEEIFQMKRTLPLYNFLPRVSSGGMTHFPYLSDSEMGNLRWVAESYSNELPVYVPDSNRLLKGDRVRITSGYFTGMEAEVVIQPGGGHKDVMARILDCMWVPLLEVKPGEYELIELNTKGKHAYTHLDNDRLREGLHDALGRYHTSGSVAEEDTRLACEVLRSYGSLRAETDVMRCKIYSLLLSAYKLLGDEEEFTRLHDTMRGMLPVVKAPQSRALLLVTLYGCTDSALYRQMAHEVVDPWRGESSPKKSKLSLIRRLDDCDRWLRHNE
soluble on expression in E. coli: not soluble

input sequence: MGSDKIHHHHHHSDIASSVNGGSNRLADGGDFELGMSVYGINQIDVRQTGSGTAQLSLLVSGMYQYKGMFVEMIHQSQDGVNLGVNLWSSEDWSFDLLLANLQGSWSRPDLDPSTLDEAGRNAYLLSEDSLYIGAGFRATRYWGDNYVFQYRLVSDYYDDQGIQSSARLGKSWQVRNWNFHVLGSVGYSSATLNRYLFGVSKEEATELFPEYHPSSSFSYGMELGVAYPLSESFVFRAMYRFNVLSKEVTDSPFNQAGYASFFNASISYVF
soluble on expression in E. coli: not soluble

input sequence: GEIWVYIDHIGEKPNRASFEIMGEARRIADLMDTSLSAVMVGGEATKSLIEETFEYGADKVYFVETKGFDRYDNEVYTRALAKVIKKYKPEAVFFPGTKNARELASTTAIEVDTGLIADCTNFDVDDKGVLLSTRPDFGGKEMSTIICPRHRPVMVTVRAGVFMPLPRVPGRKGELAREEIDDLFTRLKVLDYRVIEKRNI
soluble on expression in E. coli: not soluble

Data origin, for the record: the DeepSol protein solubility set
